A collection of compounds and their measured chromatographic logP
# METHOD: logP determination by HPLC (reverse-phase C 18), EEC Directive 79/831 Annex V.A8
# Format: physicochemical
# CONDITION_SUMMARY: reverse-phase C18 HPLC column; pH 2.3, HPLC, 43° C.; read-out: logP (pH 2.3)
Please give the numeric answer without any surrounding text.

compound="Cc1ccsc1C(=O)Nc1ccccc1Br [III-1]" observed=3.3

*Q* For Cc1ccsc1C(=O)Nc1ccccc1-c1ccc(F)c(Cl)c1 [Example 1] , what is its reported chromatographic logP?
*A* 3.85

* * *

A collection of compounds and their measured chromatographic logP
# METHOD: logP determination by HPLC (reverse-phase C 18), EEC Directive 79/831 Annex V.A8
# Type: physicochemical
# CONDITION_SUMMARY: reverse-phase C18 HPLC column; Table 1; acidic range at pH 2.3, HPLC, 43° C.; read-out: logP
Please give the numeric answer without any surrounding text.

Sample answers from the record:
compound="Cc1ccsc1C(=O)Nc1ccccc1-c1ccc(OC(F)(F)F)c(C(F)(F)F)c1 [Example 12]" experimental_endpoint="chromatographic logP" observed=4.37
compound="Cc1ccsc1C(=O)Nc1ccccc1-c1cccc(Cl)c1 [Example 5]" experimental_endpoint="chromatographic logP" observed=3.97
compound="Cc1ccsc1C(=O)Nc1ccccc1-c1ccc(Br)cc1 [Example 3]" experimental_endpoint="chromatographic logP" observed=4.12
compound="Cc1ccsc1C(=O)Nc1ccccc1-c1ccc(Cl)cc1Cl [Example 19]" experimental_endpoint="chromatographic logP" observed=5.76
compound="Cc1ccsc1C(=O)Nc1ccccc1-c1ccc(Cl)c(F)c1 [Example 10]" experimental_endpoint="chromatographic logP" observed=3.85

*Q* For Cc1ccsc1C(=O)Nc1ccccc1-c1ccc(OC(F)(F)F)cc1 [Example 6] , what is its reported chromatographic logP?
*A* 4.33

*Q* Cc1ccsc1C(=O)Nc1ccccc1-c1ccc(OC(F)(F)F)c(F)c1 [Example 11] , same question.
*A* 4.13

*Q* Cc1ccsc1C(=O)Nc1ccccc1-c1ccc(F)cc1 [Example 8] , same question.
*A* 3.65

*Q* Cc1ccsc1C(=O)Nc1ccccc1-c1ccc(F)c(F)c1 [Example 9] , same question.
*A* 3.55

*Q* Cc1ccsc1C(=O)Nc1ccccc1-c1cc(Cl)cc(Cl)c1 [Example 15] , same question.
*A* 4.32

* * *

# System: Sphaerotheca fuliginea
# METHOD: Sphaerotheca test (cucumber)/protective
# Assay type: in vivo
# CONDITION_SUMMARY: Podosphaera fuliginea, 168 h, protective, evaluation 7 days after inoculation, read-out: Efficacy in %
EXPERIMENTAL_ENDPOINT: pest or weed control at 100 g/ha (%)
State just the number; it will be interpreted in %.

Sample answers from the record:
smiles=Cc1ccsc1C(=O)Nc1ccccc1-c1ccc(Cl)c(F)c1 observed=100
smiles=Cc1ccsc1C(=O)Nc1ccccc1-c1ccc(OC(F)(F)F)c(F)c1 observed=100
smiles=Cc1ccsc1C(=O)Nc1ccccc1-c1ccc(OC(F)(F)F)cc1 observed=100
smiles=Cc1ccsc1C(=O)Nc1ccccc1-c1cccc(Cl)c1 observed=93
smiles=Cc1ccsc1C(=O)Nc1ccccc1-c1ccc(F)c(Cl)c1 observed=100
smiles=Cc1ccsc1C(=O)Nc1ccccc1-c1ccc(OC(F)(F)F)c(C(F)(F)F)c1 observed=100
smiles=Cc1ccsc1C(=O)Nc1ccccc1-c1ccc(Cl)cc1Cl observed=96
smiles=Cc1ccsc1C(=O)Nc1ccccc1-c1ccc(F)c(F)c1 observed=100

*Q* For `Cc1ccsc1C(=O)Nc1ccccc1-c1cc(Cl)cc(Cl)c1` , what is its reported pest or weed control at 100 g/ha?
*A* 100

*Q* `Cc1ccsc1C(=O)Nc1ccccc1-c1ccc(Cl)cc1F` , same question.
*A* 100

Data provenance: patent US7381688B2
